- Test system: soybean (Glycine max)
- protocol_notes: Test B pre-/postemergence plant response
- Type: in vivo
- run_parameters: Postemergence, 250 g ai/ha; scale 0 to 100 (0 no effect, 100 complete control); 13 to 15 days
assay_metric: Plant response rating, Soybean

Worked examples, 4 compounds total:
>  <compound>
O=C(C1=C(O)C2CCC(C2)C1=O)c1cnc(-c2ccsc2)n(CC2CCCO2)c1=O (stereo not drawn)

>  <Plant response rating, Soybean>
98

$$$$
>  <compound>
CCCn1c(-c2cccc(C(F)(F)F)c2)ncc(C(=O)C2=C(O)CCCC2=O)c1=O

>  <Plant response rating, Soybean>
100

$$$$
>  <compound>
CCCn1c(-c2cc(C)cc(C)c2)ncc(C(=O)C2=C(O)CCCC2=O)c1=O

>  <Plant response rating, Soybean>
98

$$$$
>  <compound>
Cc1ccc(Cl)cc1-n1c(-c2cccc(F)c2)ncc(C(=O)C2=C(O)CCCC2=O)c1=O

>  <Plant response rating, Soybean>
100

$$$$

API: the following record is the query input.
Ask: Plant response rating, Soybean lookup needed for CCCn1c(-c2ccsc2)ncc(C(=O)C2=C(O)C3CCC(C3)C2=O)c1=O (stereo not drawn) , thanks.
Reply: 98

###

// reported Lambsquarters plant response rating (0 to 100 scale) per item
- System: lambsquarters (Chenopodium album)
- protocol_notes: Test B pre-/postemergence plant response
- Type: in vivo
- run_parameters: 62 g ai/ha, postemergence; 0 is no effect, 100 is complete control; 13 to 15 days
Reply briefly: the number, and no unit.

Recorded Lambsquarters plant response rating (0 to 100 scale), per entry:
>  <compound>
O=C1CCCC(O)=C1C(=O)c1cnc(-c2ccccc2Br)n(-c2ccccc2)c1=O [Compound 71]

>  <value_measured>
85

$$$$
>  <compound>
CCCn1c(-c2ccc(F)cc2)ncc(C(=O)C2=C(O)CCCC2=O)c1=O [Compound 102]

>  <value_measured>
98

$$$$
>  <compound>
CCCCn1c(-c2ccccc2)ncc(C(=O)C2=C(O)CCCC2=O)c1=O [Compound 86]

>  <value_measured>
100

$$$$
>  <compound>
O=C1CCCC(O)=C1C(=O)c1cnc(-c2ccccc2)n(C2CCCC2)c1=O [Compound 131]

>  <value_measured>
95

$$$$
>  <compound>
COCCn1c(-c2cccc(Cl)c2)ncc(C(=O)C2=C(O)CCCC2=O)c1=O [Compound 147]

>  <value_measured>
95

$$$$

Ask: Report Lambsquarters plant response rating (0 to 100 scale) for CCCCn1c(-c2cc(F)cc(F)c2)ncc(C(=O)C2=C(O)CCCC2=O)c1=O [Compound 121] please.
Reply: 100

###

- Test system: ragweed (common ragweed, Ambrosia elatior)
- protocol_notes: Test B pre-/postemergence plant response
- Type: in vivo
- run_parameters: Postemergence, 250 g ai/ha; scale 0 to 100 (0 no effect, 100 complete control); 13 to 15 days
Entries and their Plant response rating, Ragweed

Worked set:
>  <line_notation>
O=C1CCCC(O)=C1C(=O)c1cnc(-c2cc(F)cc(F)c2)n(C2CCCCC2)c1=O

>  <target>
ragweed (common ragweed, Ambrosia elatior)

>  <Plant response rating, Ragweed>
100

$$$$
>  <line_notation>
CCCn1c(-c2cccc(Br)c2)ncc(C(=O)C2=C(O)CCCC2=O)c1=O

>  <target>
ragweed (common ragweed, Ambrosia elatior)

>  <Plant response rating, Ragweed>
95

$$$$

Ask: I'm curious: which Plant response rating, Ragweed was measured for COc1ccc(-n2c(-c3ccccc3)ncc(C(=O)C3=C(O)CCCC3=O)c2=O)cc1OC tested on ragweed (common ragweed, Ambrosia elatior)?
Reply: 100

###

- System: lambsquarters (Chenopodium album)
- protocol_notes: Test B pre-/postemergence plant response
- Assay type: in vivo
- run_parameters: Postemergence, 125 g ai/ha; scale 0 to 100 (0 no effect, 100 complete control)
assay_metric: Plant response rating, Lambsquarters
Answer as a number with no unit attached.

>  <compound>
COCCn1c(-c2cccc(C)c2)ncc(C(=O)C2=C(O)CCCC2=O)c1=O

>  <value_measured>
100

$$$$
>  <compound>
COCCCn1c(-c2cccc(C)c2)ncc(C(=O)C2=C(O)CCCC2=O)c1=O

>  <value_measured>
100

$$$$

Ask: Can you share its Plant response rating, Lambsquarters? I mean this compound: CCCCn1c(-c2cccc(Cl)c2)ncc(C(=O)C2=C(O)CCCC2=O)c1=O
Reply: 100

Ask: What do you have for CCCn1c(-c2cc(F)cc(F)c2)ncc(C(=O)C2=C(O)CCCC2=O)c1=O ?
Reply: 98

Ask: Item: COCCn1c(-c2cccc(F)c2)ncc(C(=O)C2=C(O)CCCC2=O)c1=O
Reply: 98

Ask: Continue with COCCn1c(-c2cccc(F)c2)ncc(C(=O)C2=C(O)C3CCC(C3)C2=O)c1=O (centres unmarked)
Reply: 100

Ask: And O=C1CCCC(O)=C1C(=O)c1cnc(-c2ccccc2)n(C2CCSCC2)c1=O ?
Reply: 100

Ask: Do the same for Cc1ccc(Cl)cc1-n1c(-c2cccc(F)c2)ncc(C(=O)C2=C(O)CCCC2=O)c1=O please
Reply: 100

Ask: Now consider CCCn1c(-c2cccc(Cl)c2)ncc(C(=O)C2=C(O)CCCC2=O)c1=O and answer again.
Reply: 100

Ask: Again, but for CCc1ccc(-n2c(-c3ccccc3)ncc(C(=O)C3=C(O)CCCC3=O)c2=O)cc1
Reply: 100

Ask: Please do the same for COCCn1c(-c2cc(F)cc(F)c2)ncc(C(=O)C2=C(O)CCCC2=O)c1=O as well.
Reply: 100

###

- Tested on: corn (Zea mays)
- protocol_notes: Test A pre-/postemergence plant response
- Assay type: in vivo
- run_parameters: Postemergence, 500 g ai/ha; visual injury, 0 to 100 scale (0 no effect, 100 complete control), approx. ten days
Decide using Corn plant response rating: a value greater than or equal to 50 is Condition met, a smaller one is Condition not met.

Check out these entries, answers already filled in.
>  <compound>
C=CCCn1c(-c2ccccc2)ncc(C(=O)C2=C(O)CCCC2=O)c1=O

>  <cat>
Condition not met

$$$$
>  <compound>
COCCn1c(-c2cccc(F)c2)ncc(C(=O)C2=C(O)C3CCC(C3)C2=O)c1=O (centres unmarked)

>  <cat>
Condition met

$$$$
>  <compound>
CCCn1c(-c2ccsc2)ncc(C(=O)C2=C(O)C3CCC(C3)C2=O)c1=O (centres unmarked)

>  <cat>
Condition met

$$$$
>  <compound>
CCCn1c(-c2cccs2)ncc(C(=O)c2cnn(CC)c2O)c1=O

>  <cat>
Condition not met

$$$$
>  <compound>
CCn1c(Cc2ccccc2)ncc(C(=O)C2=C(O)CCCC2=O)c1=O

>  <cat>
Condition not met

$$$$
>  <compound>
COc1ccc(-n2c(-c3ccccc3)ncc(C(=O)C3=C(O)CCCC3=O)c2=O)c(OC)c1

>  <cat>
Condition not met

$$$$

Consider the record given below.
Ask: I'd appreciate it if you could say whether O=C(C1=C(O)C2CCC(C2)C1=O)c1cnc(-c2ccccc2)n(C2CCCCCC2)c1=O (centres unmarked) has Corn plant response rating at least equal to 50.
Reply: Condition not met

###

- Test system: morningglory (Ipomoea spp.)
- protocol_notes: Test A pre-/postemergence plant response
- Assay type: in vivo
- run_parameters: Preemergence, 500 g ai/ha; 0 to 100 scale, 0 = no effect, 100 = complete control
// reported Plant response rating, Morningglory for each item listed
Keep it simple and answer with nothing but the number.

Field: example entries. Status: answers known.
>  <compound>
O=C1CCCC(O)=C1C(=O)c1cnc(-c2ccccc2)n(C2CCCCCCCCCCC2)c1=O

>  <target>
morningglory (Ipomoea spp.)

>  <Plant response rating, Morningglory>
0

$$$$
>  <compound>
O=C1CCCC(O)=C1C(=O)c1cnc(-c2ccc(F)cc2)n(C2CCCCC2)c1=O

>  <target>
morningglory (Ipomoea spp.)

>  <Plant response rating, Morningglory>
60

$$$$
>  <compound>
CCc1ccc(-n2c(-c3cccc(Cl)c3)ncc(C(=O)C3=C(O)CCCC3=O)c2=O)cc1

>  <target>
morningglory (Ipomoea spp.)

>  <Plant response rating, Morningglory>
0

$$$$

Ask: Find the recorded Plant response rating, Morningglory belonging to O=C(C1=C(O)C2CCC(C2)C1=O)c1cnc(-c2ccccc2)n(C2CCCCCC2)c1=O (stereo not shown) and report it.
Reply: 70

###

- System: Surinam grass (Brachiaria decumbens)
- protocol_notes: Test B pre-/postemergence plant response
- Format: in vivo
- run_parameters: Postemergence, 125 g ai/ha; visual rating after 13 to 15 days, scale 0 (no effect) to 100 (complete control)
If the reported Plant response rating, Surinam Grass equals or exceeds 80, assign 1. If not, assign 0.

The following compounds have reported results that may help.
>  <compound>
CCCc1ncc(C(=O)C2=C(O)CCCC2=O)c(=O)n1CC1CCCO1 (stereo not shown)

>  <cat>
0

$$$$
>  <compound>
Cc1cc(C)cc(-n2c(-c3ccccc3)ncc(C(=O)C3=C(O)CCCC3=O)c2=O)c1

>  <cat>
0

$$$$
>  <compound>
Cc1ccccc1-n1c(-c2ccccc2)ncc(C(=O)C2=C(O)CCCC2=O)c1=O

>  <cat>
0

$$$$

Ask: # check: Plant response rating, Surinam Grass of Cc1ccc(F)cc1-n1c(-c2ccccc2)ncc(C(=O)C2=C(O)CCCC2=O)c1=O is greater than or equal to 80
Reply: 1

Ask: And then Cc1ccccc1-c1ncc(C(=O)C2=C(O)CCCC2=O)c(=O)n1-c1ccccc1 , what is it?
Reply: 0

Ask: Here is the next compound: O=C1CCCC(O)=C1C(=O)c1cnc(-c2ccsc2)n(-c2ccccc2)c1=O
Reply: 1

Ask: Then this compound: CCCCc1ncc(C(=O)C2=C(O)CCCC2=O)c(=O)n1-c1ccccc1
Reply: 0
